- TARGET DESC: CAMK2B (human)
- TEST NAME: KINOMEscan competition binding
- CONDITION LABEL: compound 10.0 µM
MEASURE NAME: kinase still bound, per cent of control (%)
# value in %; strip the unit string

Answered cases to consult:
- MOLECULE SMILES: "C=CC(=O)Nc1cccc(Oc2nc(Nc3ccc(N4CCN(C)CC4)cc3OC)ncc2Cl)c1"
  TARGET DESC: "CAMK2B (human)"
  kinase still bound, per cent of control / %: 100
- MOLECULE SMILES: "OCCCNc1cc(-c2ccnc(Nc3cccc(Cl)c3)n2)ccn1"
  TARGET DESC: "CAMK2B (human)"
  kinase still bound, per cent of control / %: 100
- MOLECULE SMILES: "Cc1ccc(NC(=O)c2cccc(C(C)(C)C#N)c2)cc1Nc1ccc2ncn(C)c(=O)c2c1"
  TARGET DESC: "CAMK2B (human)"
  kinase still bound, per cent of control / %: 100
- MOLECULE SMILES: "C=CC(=O)Nc1cc(NC(=O)c2ccc(C)c(NC(=O)c3ccno3)c2)cc(C(F)(F)F)c1"
  TARGET DESC: "CAMK2B (human)"
  kinase still bound, per cent of control / %: 100
- MOLECULE SMILES: "O=C(NC1CC1)c1cccc(-c2ccc3c(NC(=O)C4CC4)n[nH]c3c2)c1"
  TARGET DESC: "CAMK2B (human)"
  kinase still bound, per cent of control / %: 84
- MOLECULE SMILES: "O=C1Nc2ccc(I)cc2/C1=C/c1cc(Br)c(O)c(Br)c1"
  TARGET DESC: "CAMK2B (human)"
  kinase still bound, per cent of control / %: 17
- MOLECULE SMILES: "CN(C)C/C=C/C(=O)Nc1cccc(Nc2ncc3c(n2)N(C)c2ccccc2C(=O)N3C)c1"
  TARGET DESC: "CAMK2B (human)"
  kinase still bound, per cent of control / %: 40
- MOLECULE SMILES: "COc1cc(C(=O)NC2CCN(C)CC2)ccc1Nc1ncc2c(n1)N(C1CCCC1)CCC(=O)N2C(C)C"
  TARGET DESC: "CAMK2B (human)"
  kinase still bound, per cent of control / %: 100

For this compound ( Cc1ccc2nc(NCCN)c3ncc(C)n3c2c1 ), measured kinase still bound, per cent of control is 73

For this compound ( CCN1CCN(Cc2ccc(Nc3ncc4c(n3)N(C)c3ccccc3C(=O)N4C)cc2C(F)(F)F)CC1 ), measured kinase still bound, per cent of control is 58

For this compound ( CCCS(=O)(=O)Nc1ccc(F)c(C(=O)c2c[nH]c3ncc(-c4ccc(Cl)cc4)cc23)c1F ), measured kinase still bound, per cent of control is 98

For this compound ( CCOc1cc2ncc(C#N)c(Nc3ccc(OCc4ccccn4)c(Cl)c3)c2cc1NC(=O)/C=C/CN(C)C ), measured kinase still bound, per cent of control is 100

---

- Test system: FLT3 (human), P36888 [K663Q]
- TEST NAME: KINOMEscan competition binding
- CONDITION LABEL: compound 10.0 µM
Below, each entry is listed alongside its reported kinase still bound, per cent of control.
# value in %; strip the unit string

For this compound ( CN(C)C/C=C/C(=O)Nc1cccc(Nc2ncc3c(n2)N(C)c2ccccc2C(=O)N3C)c1 ), measured kinase still bound, per cent of control is 37

For this compound ( O=C(NC1CC1)c1cccc(-c2ccc3c(NC(=O)C4CC4)n[nH]c3c2)c1 ), measured kinase still bound, per cent of control is 61

For this compound ( COc1cc(C)c(Sc2cnc(NC(=O)c3ccc(CNC(C)C(C)C)cc3)s2)cc1C(=O)N1CCN(C(C)=O)CC1 (stereo not given) ), measured kinase still bound, per cent of control is 100

For this compound ( C=CC(=O)Nc1ccc(C(=O)c2sc(Nc3ccc(N4CCN(C)CC4)cc3OC)nc2N)cc1 ), measured kinase still bound, per cent of control is 64

For this compound ( CCc1nc(-c2cccc(C)c2)c(-c2ccnc(NC(=O)c3ccccc3)c2)s1 ), measured kinase still bound, per cent of control is 17

---

- TARGET DESC: LYN (human) (UniProt P07948)
- Sequence (P07948 whole entry, looked up): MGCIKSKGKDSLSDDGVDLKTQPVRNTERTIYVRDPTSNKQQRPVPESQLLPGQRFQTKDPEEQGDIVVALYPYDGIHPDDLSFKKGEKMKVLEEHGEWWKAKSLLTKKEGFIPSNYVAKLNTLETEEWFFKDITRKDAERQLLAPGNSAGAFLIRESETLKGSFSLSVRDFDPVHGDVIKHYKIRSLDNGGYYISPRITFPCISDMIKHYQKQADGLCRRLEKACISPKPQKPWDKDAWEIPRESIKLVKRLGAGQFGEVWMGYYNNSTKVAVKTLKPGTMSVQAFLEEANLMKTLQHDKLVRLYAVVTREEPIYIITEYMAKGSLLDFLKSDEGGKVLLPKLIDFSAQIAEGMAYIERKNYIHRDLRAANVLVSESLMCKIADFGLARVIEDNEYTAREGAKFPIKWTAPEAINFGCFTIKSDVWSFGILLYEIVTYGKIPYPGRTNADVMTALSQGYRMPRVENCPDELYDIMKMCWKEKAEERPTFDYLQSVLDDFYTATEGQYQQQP
- TEST NAME: KINOMEscan competition binding
- CONDITION LABEL: compound 10.0 µM
MEASURE NAME: kinase still bound, per cent of control (%)
# value in %; strip the unit string

Answered cases to consult:
- COMPOUND: "Cn1c(=O)n(-c2ccc(C(C)(C)C#N)cc2)c2c3cc(-c4cnc5ccccc5c4)ccc3ncc21"
  kinase still bound, per cent of control / %: 100
- COMPOUND: "COc1cc(C(=O)NC2CCN(C)CC2)ccc1Nc1ncc2c(n1)N(C1CCCC1)C(C)CC(=O)N2C (stereo not drawn)"
  kinase still bound, per cent of control / %: 100
- COMPOUND: "C=CC(=O)Nc1cccc(Nc2nc(N[C@H]3CC[C@H](N(C)C)CC3)nc3c2ncn3C(C)C)c1"
  kinase still bound, per cent of control / %: 50
- COMPOUND: "COc1cc(C(=O)NC2CCN(C)CC2)ccc1Nc1ncc2c(n1)N(C1CCCC1)CCC(=O)N2C(C)C"
  kinase still bound, per cent of control / %: 100
- COMPOUND: "Cc1ccc2nc(NCCN)c3ncc(C)n3c2c1"
  kinase still bound, per cent of control / %: 100

Reported kinase still bound, per cent of control (LYN (human) (UniProt P07948)) for entry OCCCNc1cc(-c2ccnc(Nc3cccc(Cl)c3)n2)ccn1 is 100

Reported kinase still bound, per cent of control (LYN (human) (UniProt P07948)) for entry O=C(O)c1ccc(Nc2ncc3c(n2)-c2ccc(Cl)cc2C(c2c(F)cccc2F)=NC3)cc1 is 25

Reported kinase still bound, per cent of control (LYN (human) (UniProt P07948)) for entry O=C(NC1CC1)c1cccc(-c2ccc3c(NC(=O)C4CC4)n[nH]c3c2)c1 is 83

Reported kinase still bound, per cent of control (LYN (human) (UniProt P07948)) for entry C=CC(=O)Nc1cccc(Oc2nc(Nc3ccc(N4CCN(C)CC4)cc3OC)ncc2Cl)c1 is 100

Reported kinase still bound, per cent of control (LYN (human) (UniProt P07948)) for entry N#Cc1c(NC(=O)c2cccc3ccccc23)sc2c1CCCC2 is 78

Reported kinase still bound, per cent of control (LYN (human) (UniProt P07948)) for entry Cc1cc([C@@H](C)Nc2ccccc2C(=O)O)c2nc(N3CCOCC3)cc(=O)n2c1 is 99

Reported kinase still bound, per cent of control (LYN (human) (UniProt P07948)) for entry CCC(=O)N1CCN(c2ccc(-n3c(=O)ccc4cnc5ccc(-c6cnc7ccccc7c6)cc5c43)cc2C(F)(F)F)CC1 is 79

Reported kinase still bound, per cent of control (LYN (human) (UniProt P07948)) for entry CCCS(=O)(=O)Nc1ccc(F)c(C(=O)c2c[nH]c3ncc(-c4ccc(Cl)cc4)cc23)c1F is 16

Reported kinase still bound, per cent of control (LYN (human) (UniProt P07948)) for entry Cc1ccc(C(=O)Nc2cccc(C(F)(F)F)c2)cc1Nc1cncc(C(N)=O)c1 is 9.4

Reported kinase still bound, per cent of control (LYN (human) (UniProt P07948)) for entry Nc1ccc(-c2ccc3ncc4ccc(=O)n(-c5cccc(C(F)(F)F)c5)c4c3c2)cn1 is 100

Reported kinase still bound, per cent of control (LYN (human) (UniProt P07948)) for entry O=C(NOC[C@H](O)CO)c1ccc(F)c(F)c1Nc1ccc(I)cc1F is 72

Reported kinase still bound, per cent of control (LYN (human) (UniProt P07948)) for entry CCN1CCN(Cc2ccc(Nc3ncc4c(n3)N(C)c3ccccc3C(=O)N4C)cc2C(F)(F)F)CC1 is 61

Reported kinase still bound, per cent of control (LYN (human) (UniProt P07948)) for entry C=CC(=O)Nc1cc(NC(=O)c2ccc(C)c(NC(=O)c3ccno3)c2)cc(C(F)(F)F)c1 is 34

---

- TARGET DESC: MELK (human) (UniProt Q14680)
- Sequence (Q14680 whole entry, looked up): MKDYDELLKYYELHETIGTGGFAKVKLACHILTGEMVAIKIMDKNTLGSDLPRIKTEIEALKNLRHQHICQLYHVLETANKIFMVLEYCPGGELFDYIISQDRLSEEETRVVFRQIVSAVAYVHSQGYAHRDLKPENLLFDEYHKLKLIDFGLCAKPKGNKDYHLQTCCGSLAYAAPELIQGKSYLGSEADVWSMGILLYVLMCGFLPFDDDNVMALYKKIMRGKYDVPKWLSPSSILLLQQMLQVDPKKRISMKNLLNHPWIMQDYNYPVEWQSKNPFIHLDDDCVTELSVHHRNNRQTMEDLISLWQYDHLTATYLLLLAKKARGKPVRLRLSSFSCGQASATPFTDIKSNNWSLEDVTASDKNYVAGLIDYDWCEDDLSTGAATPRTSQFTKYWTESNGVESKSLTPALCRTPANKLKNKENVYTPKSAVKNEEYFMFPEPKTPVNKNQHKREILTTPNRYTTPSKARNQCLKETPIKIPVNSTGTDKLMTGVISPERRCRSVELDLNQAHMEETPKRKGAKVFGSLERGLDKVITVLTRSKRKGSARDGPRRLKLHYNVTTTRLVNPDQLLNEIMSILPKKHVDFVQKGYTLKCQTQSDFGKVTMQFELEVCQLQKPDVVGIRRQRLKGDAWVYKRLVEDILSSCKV
- TEST NAME: KINOMEscan competition binding
- CONDITION LABEL: compound 10.0 µM
MEASURE NAME: kinase still bound, per cent of control (%)
# value in %; strip the unit string

- MOLECULE SMILES: "O=C(O)c1ccc(Nc2ncc3c(n2)-c2ccc(Cl)cc2C(c2c(F)cccc2F)=NC3)cc1"
  kinase still bound, per cent of control, %: 81
- MOLECULE SMILES: "O=C(NOC[C@H](O)CO)c1ccc(F)c(F)c1Nc1ccc(I)cc1F"
  kinase still bound, per cent of control, %: 80
- MOLECULE SMILES: "Cn1c(=O)n(-c2ccc(C(C)(C)C#N)cc2)c2c3cc(-c4cnc5ccccc5c4)ccc3ncc21"
  kinase still bound, per cent of control, %: 100

For this compound ( CCOc1cc2ncc(C#N)c(Nc3ccc(OCc4ccccn4)c(Cl)c3)c2cc1NC(=O)/C=C/CN(C)C ), measured kinase still bound, per cent of control is 55

For this compound ( Cc1ccc(NC(=O)c2cccc(C(C)(C)C#N)c2)cc1Nc1ccc2ncn(C)c(=O)c2c1 ), measured kinase still bound, per cent of control is 100

For this compound ( COc1cc(C(=O)NC2CCN(C)CC2)ccc1Nc1ncc2c(n1)N(C1CCCC1)CCC(=O)N2C(C)C ), measured kinase still bound, per cent of control is 100

For this compound ( Nc1ccc(-c2ccc3ncc4ccc(=O)n(-c5cccc(C(F)(F)F)c5)c4c3c2)cn1 ), measured kinase still bound, per cent of control is 50

For this compound ( OCCCNc1cc(-c2ccnc(Nc3cccc(Cl)c3)n2)ccn1 ), measured kinase still bound, per cent of control is 100

For this compound ( CCN1CCN(Cc2ccc(Nc3ncc4c(n3)N(C)c3ccccc3C(=O)N4C)cc2C(F)(F)F)CC1 ), measured kinase still bound, per cent of control is 75
